B1: KCNA4 (parent)
chain: YQLGEEALLKFREDEGFVREEEDR

- Variants of: B1
- Method: protein stability index of a GFP-peptide fusion (GPS, HEK-293T) (PSI 1-6); higher = more stable;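 note: lentivirally expressed fusions sorted by FACS into six bins by GFP to DsRed ratio, PSI derived from sequencing read proportions per bin multiplied by bin number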
- Protocol Conditions: c terminus: a fixed tail appended
Grouping key: protein stability index. Bins: lower level: < 4; middle level: ≥ 4 and < 5; upper level: ≥ 5

# classify by protein stability index band: E22N
lower level

# classify by protein stability index band: D23I
lower level

# classify by protein stability index band: G4I
middle level

# classify by protein stability index band: E22H
middle level

# classify by protein stability index band: G4D
middle level

# classify by protein stability index band: V18Y
middle level

# classify by protein stability index band: F17I
middle level

# classify by protein stability index band: Q2M
middle level

# classify by protein stability index band: K10C
lower level

# classify by protein stability index band: E5T
middle level

# classify by protein stability index band: E20W
lower level

# classify by protein stability index band: F17H
middle level

# classify by protein stability index band: K10H
middle level

# classify by protein stability index band: Q2D
upper level

# classify by protein stability index band: E15D
middle level

# classify by protein stability index band: F11V
upper level

# classify by protein stability index band: Y1S
upper level

# classify by protein stability index band: F17R
middle level

# classify by protein stability index band: Y1E
upper level

# classify by protein stability index band: K10Q
middle level

# classify by protein stability index band: F17L
middle level

# classify by protein stability index band: D14G
lower level

# classify by protein stability index band: A7K
upper level

# classify by protein stability index band: L3C
middle level

# classify by protein stability index band: G16N
middle level

# classify by protein stability index band: E15V
lower level

# classify by protein stability index band: G16E
middle level

# classify by protein stability index band: L8N
upper level

# classify by protein stability index band: K10G
upper level

# classify by protein stability index band: G16I
middle level

# classify by protein stability index band: R24K
middle level

# classify by protein stability index band: L9F
middle level

# classify by protein stability index band: E5V
lower level

# classify by protein stability index band: E22V
middle level

# classify by protein stability index band: A7S
middle level

# classify by protein stability index band: V18N
middle level

# classify by protein stability index band: D23R
middle level

# classify by protein stability index band: E20K
middle level

# classify by protein stability index band: E21W
lower level

# classify by protein stability index band: E21S
middle level
